src = PubChem BioAssay (EPA / NIEHS)

biological target: Peroxisome proliferator-activated receptor gamma (Homo sapiens); test: NVS_NR_hPPARg: NovaScreen (NVS) Nuclear Receptor Binding Assay for human Peroxisome Proliferator-activated Receptor gamma (PPARg) (AID 2283370)
Results filed as inconclusive are left out. The source made the active and inactive calls. The calls were made as follows: active = hit-call score of the fitted dose curve at least 0.9, where 1 is the maximum; inconclusive = response in the unintended direction; inactive = score below 0.9.
Tick one outcome: yes (1) for active, no (0) for inactive

> print(dat)
                                   compound                             target.system  class.name
1  CC1(C)NC(=O)N(c2ccc([N+](=O)[O-])c(C(F)(F)F)c2)C1=O  Peroxisome proliferator-activated receptor gamma (Homo sapiens)      no (0)

Hi team, can someone confirm the assay call for Oc1ccc2ccccc2c1 ?
no (0)
